The measurements presented in this section are drawn from patent US10280170B2.

STUDY_SYSTEM: Ros1 enzyme (Homo sapiens)
Construct: 0.5 μg/ml Ros1 enzyme
Sequence (P08922 28-2347): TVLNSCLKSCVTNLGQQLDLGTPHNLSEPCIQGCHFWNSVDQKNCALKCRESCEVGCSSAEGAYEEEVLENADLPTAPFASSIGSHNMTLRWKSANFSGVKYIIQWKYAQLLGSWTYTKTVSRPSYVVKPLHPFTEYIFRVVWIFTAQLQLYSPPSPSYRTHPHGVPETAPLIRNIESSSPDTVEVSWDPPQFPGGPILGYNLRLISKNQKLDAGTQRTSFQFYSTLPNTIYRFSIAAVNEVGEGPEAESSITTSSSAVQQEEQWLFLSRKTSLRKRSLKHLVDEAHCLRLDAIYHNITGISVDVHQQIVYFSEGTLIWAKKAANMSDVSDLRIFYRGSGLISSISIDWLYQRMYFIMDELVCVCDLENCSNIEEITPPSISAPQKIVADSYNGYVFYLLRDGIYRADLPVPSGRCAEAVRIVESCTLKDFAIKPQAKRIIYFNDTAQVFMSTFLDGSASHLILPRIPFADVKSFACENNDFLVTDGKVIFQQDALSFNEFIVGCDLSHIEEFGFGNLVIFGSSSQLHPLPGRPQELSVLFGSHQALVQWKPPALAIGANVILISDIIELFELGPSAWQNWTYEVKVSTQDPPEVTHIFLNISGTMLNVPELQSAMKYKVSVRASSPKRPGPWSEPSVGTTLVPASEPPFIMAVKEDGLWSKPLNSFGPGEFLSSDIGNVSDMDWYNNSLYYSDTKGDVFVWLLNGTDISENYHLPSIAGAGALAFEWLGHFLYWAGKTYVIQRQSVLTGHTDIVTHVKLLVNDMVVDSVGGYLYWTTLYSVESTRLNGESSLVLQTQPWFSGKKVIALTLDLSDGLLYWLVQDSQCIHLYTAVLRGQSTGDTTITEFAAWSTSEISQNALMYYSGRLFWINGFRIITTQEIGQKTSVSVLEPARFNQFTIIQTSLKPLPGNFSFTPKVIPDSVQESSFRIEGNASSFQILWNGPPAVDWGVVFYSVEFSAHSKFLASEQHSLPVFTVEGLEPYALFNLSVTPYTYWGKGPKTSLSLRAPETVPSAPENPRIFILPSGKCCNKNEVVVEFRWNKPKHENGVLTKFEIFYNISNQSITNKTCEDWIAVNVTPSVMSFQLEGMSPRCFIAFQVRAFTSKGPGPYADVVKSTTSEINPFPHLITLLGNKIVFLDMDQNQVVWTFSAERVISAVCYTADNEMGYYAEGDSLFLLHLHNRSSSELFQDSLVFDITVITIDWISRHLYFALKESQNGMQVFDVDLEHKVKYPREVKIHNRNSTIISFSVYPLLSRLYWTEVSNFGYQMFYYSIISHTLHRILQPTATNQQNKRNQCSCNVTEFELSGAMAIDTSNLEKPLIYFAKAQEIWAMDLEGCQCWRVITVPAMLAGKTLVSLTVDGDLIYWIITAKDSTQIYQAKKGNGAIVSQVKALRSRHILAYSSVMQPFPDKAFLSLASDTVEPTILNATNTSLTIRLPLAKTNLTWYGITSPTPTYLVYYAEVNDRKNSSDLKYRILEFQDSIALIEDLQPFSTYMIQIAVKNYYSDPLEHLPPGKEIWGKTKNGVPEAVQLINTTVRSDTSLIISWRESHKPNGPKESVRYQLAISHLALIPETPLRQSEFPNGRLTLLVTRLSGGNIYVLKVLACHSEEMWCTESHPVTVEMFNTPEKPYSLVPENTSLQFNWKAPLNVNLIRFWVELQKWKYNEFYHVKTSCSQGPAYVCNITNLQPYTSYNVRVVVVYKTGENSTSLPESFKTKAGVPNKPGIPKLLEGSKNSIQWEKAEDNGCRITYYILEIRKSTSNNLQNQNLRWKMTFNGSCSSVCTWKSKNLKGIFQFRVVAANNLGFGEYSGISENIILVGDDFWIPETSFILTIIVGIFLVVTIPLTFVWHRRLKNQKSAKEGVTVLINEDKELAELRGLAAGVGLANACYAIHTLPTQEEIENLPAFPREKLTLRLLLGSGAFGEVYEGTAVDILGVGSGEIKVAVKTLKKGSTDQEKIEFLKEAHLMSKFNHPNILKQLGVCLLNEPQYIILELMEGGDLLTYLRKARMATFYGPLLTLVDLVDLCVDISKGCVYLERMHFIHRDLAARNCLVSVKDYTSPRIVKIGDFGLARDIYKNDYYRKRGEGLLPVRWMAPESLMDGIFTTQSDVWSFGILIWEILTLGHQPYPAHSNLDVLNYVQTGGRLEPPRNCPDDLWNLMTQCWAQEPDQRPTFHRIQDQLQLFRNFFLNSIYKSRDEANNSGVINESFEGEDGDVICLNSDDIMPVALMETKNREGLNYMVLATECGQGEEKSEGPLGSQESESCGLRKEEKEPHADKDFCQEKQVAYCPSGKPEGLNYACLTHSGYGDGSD
ASSAY_EXPLANATION: Ros1 enzymatic assay
Format: biochemical
CONDITION_INFO: Ros1 enzymatic assay; read-out: ROS1 pIC50 (converted)
OUTCOME_MEASURE: IC50 (nM)
Express the result in nM but write the number alone.

O=C1c2c(-c3ccc(OCc4ccc(C5CC5)nc4)cc3)c(-c3ccncn3)nn2CCN1CCO [Compound 169]
1000
CC(C)c1ccc(COc2ccc(-c3c(-c4ccncc4)nn4c3C(=O)NCC4)cc2)cc1CC(O)CO (stereo not shown) [Compound 91]
31.6
CC1Cn2nc(-c3ccncc3)c(-c3ccc(OCc4ccc(C5CC5)cc4)cc3)c2C(=O)N1 (stereo not shown) [Compound 189]
31.6

Lookup: Indicate its recorded IC50; the compound in question is CC(C)c1ccc(COc2cc(F)c(-c3c(-c4ccncc4)nn4c3C(=O)N(CCO)CC4)cc2F)cc1 [Compound 203]
Found: 3.98
